System: modified version of the GPR119 receptor (94% identity to human receptor)
Assay: cAMP production assay (LANCE cAMP kit, TR-FRET) in HEK-293 cells
Assay type: cell-based
Settings: increase in cAMP relative to basal levels; agonist activity if 1.5-fold or greater
Where a name gives a salt, the structure may show the parent alone.
Kind request: treat 4 as inclusive, so Fold over baseline at 4 or higher is YES, anything lower is NO.

compound | qualitativeLabel
CC(C)Cc1nsc(N2CCC(N3CCC(Oc4cc(F)c(S(C)(=O)=O)cc4F)C3=O)CC2)n1 (stereo not drawn) [Example 49, trifluoroacetate] | NO
CC(C)c1nsc(N2CCC(N3CC[C@H](Nc4ccc(Br)cn4)C3=O)CC2)n1 | NO
CC(C)c1nsc(N2CCC(N3CCCC(Oc4cc(F)c(S(C)(=O)=O)cc4F)C3=O)CC2)n1 (stereo not drawn) | NO
CC(C)c1nsc(N2CCC(N3CC[C@H](Oc4ccc(S(C)(=O)=O)c(Cl)c4)C3=O)CC2)n1 | NO
CS(=O)(=O)c1cc(F)c(OC2CCN(C3CCN(c4nc(C5CC5)ns4)CC3)C2=O)cc1F.O=C(O)C(F)(F)F (stereo not drawn) | NO

Test whether the compound `CS(=O)(=O)c1cc(F)c(N[C@H]2CCN(C3CCN(c4nc(C(F)(F)F)ns4)CC3)C2=O)cc1F` records Fold over baseline of 4 or higher. NO

Test whether the compound CC(C)c1nsc(N2CCC(N3CCC(Oc4ccc(S(=O)(=O)CC5CC5)cc4F)C3=O)CC2)n1 (stereo not drawn) [Example 44, trifluoroacetate] records Fold over baseline of 4 or higher. NO

* * *

Tested on: modified version of the GPR119 receptor (94% identity to human receptor)
Assay: cAMP production assay (LANCE cAMP kit, TR-FRET) in HEK-293 cells
Type: cell-based
Conditions: increase in cAMP relative to basal levels; agonist activity if 1.5-fold or greater
For each record, write down the corresponding Fold over baseline.
One number for each entry.

The following compounds have reported results that may help.
compound | quantityMeasured | reportedMeasurement
CC(C)c1nsc(N2CCC(N3CC[C@@H](Oc4ccc(S(C)(=O)=O)cc4F)C3=O)CC2)n1 [Example 51] | Fold over baseline | 5.9
CC(C)(C)c1nsc(N2CCC(N3CC[C@H](Oc4c(F)cc(S(C)(=O)=O)cc4F)C3=O)CC2)n1 [Example 36] | Fold over baseline | 4.1
CS(=O)(=O)c1cc(F)c(O[C@H]2CCN(C3CCN(c4nc(C(F)(F)F)ns4)CC3)C2=O)cc1F [Example 91] | Fold over baseline | 5.4

Turning now to a further record.
Answer with the recorded Fold over baseline of CS(=O)(=O)c1ccc(O[C@H]2CCN(C3CCN(c4nc(-n5cccn5)ns4)CC3)C2=O)c(F)c1 [Example 42] only. 2.5

* * *

System: modified version of the GPR119 receptor (94% identity to human receptor)
Test: cAMP production assay (LANCE cAMP kit, TR-FRET) in HEK-293 cells
Format: cell-based
Conditions: increase in cAMP relative to basal levels; agonist activity if 1.5-fold or greater
quantityMeasured: Fold over baseline
Answers are plain numbers.

The following compounds have reported results that may help.
compound | Fold over baseline
CS(=O)(=O)c1cc(F)c(O[C@H]2CCN(C3CCN(c4cnc(C(F)(F)F)s4)CC3)C2=O)cc1F [Example 98] | 5.4
CC(C)c1nsc(N2CCC(N3CC[C@H](Nc4ccc(S(=O)(=O)C5CC5)cc4F)C3=O)CC2)n1 [Example 4] | 4.3

# per-item lookup of Fold over baseline; items listed below
1. Cc1ncccc1Oc1nsc(N2CCC(N3CC[C@H](Oc4ccc(S(C)(=O)=O)cc4F)C3=O)CC2)n1 [Example 76]
2. CC(C)(C)c1nsc(N2CCC(N3CCC[C@H](Nc4c(F)cc(S(C)(=O)=O)cc4F)C3=O)CC2)n1 [Example 31]
3. CC(C)c1nsc(N2CCC(N3CCC(Oc4ccc(-n5cnnn5)cc4)C3=O)CC2)n1 (centres unmarked) [Example 84]
4. Cc1cc(S(C)(=O)=O)ccc1NC1CCN(C2CCN(c3nc(C(C)C)ns3)CC2)C1=O (centres unmarked) [Example 21]
5. Cn1nccc1-c1nsc(N2CCC(N3CC[C@H](Oc4ccc(S(C)(=O)=O)cc4F)C3=O)CC2)n1 [Example 72]
6. Cc1cc(O[C@H]2CCN(C3CCN(c4nc(C(C)C)ns4)CC3)C2=O)c(F)cc1S(C)(=O)=O [Example 58]

2.5
1.9
4.2
3.3
2.9
4.9
